The measurements presented in this section are drawn from ChEMBL document CHEMBL4354882.

Molecular target: Tyrosine-protein kinase JAK2 (Homo sapiens, UniProt O60674)
Sequence (O60674 whole entry): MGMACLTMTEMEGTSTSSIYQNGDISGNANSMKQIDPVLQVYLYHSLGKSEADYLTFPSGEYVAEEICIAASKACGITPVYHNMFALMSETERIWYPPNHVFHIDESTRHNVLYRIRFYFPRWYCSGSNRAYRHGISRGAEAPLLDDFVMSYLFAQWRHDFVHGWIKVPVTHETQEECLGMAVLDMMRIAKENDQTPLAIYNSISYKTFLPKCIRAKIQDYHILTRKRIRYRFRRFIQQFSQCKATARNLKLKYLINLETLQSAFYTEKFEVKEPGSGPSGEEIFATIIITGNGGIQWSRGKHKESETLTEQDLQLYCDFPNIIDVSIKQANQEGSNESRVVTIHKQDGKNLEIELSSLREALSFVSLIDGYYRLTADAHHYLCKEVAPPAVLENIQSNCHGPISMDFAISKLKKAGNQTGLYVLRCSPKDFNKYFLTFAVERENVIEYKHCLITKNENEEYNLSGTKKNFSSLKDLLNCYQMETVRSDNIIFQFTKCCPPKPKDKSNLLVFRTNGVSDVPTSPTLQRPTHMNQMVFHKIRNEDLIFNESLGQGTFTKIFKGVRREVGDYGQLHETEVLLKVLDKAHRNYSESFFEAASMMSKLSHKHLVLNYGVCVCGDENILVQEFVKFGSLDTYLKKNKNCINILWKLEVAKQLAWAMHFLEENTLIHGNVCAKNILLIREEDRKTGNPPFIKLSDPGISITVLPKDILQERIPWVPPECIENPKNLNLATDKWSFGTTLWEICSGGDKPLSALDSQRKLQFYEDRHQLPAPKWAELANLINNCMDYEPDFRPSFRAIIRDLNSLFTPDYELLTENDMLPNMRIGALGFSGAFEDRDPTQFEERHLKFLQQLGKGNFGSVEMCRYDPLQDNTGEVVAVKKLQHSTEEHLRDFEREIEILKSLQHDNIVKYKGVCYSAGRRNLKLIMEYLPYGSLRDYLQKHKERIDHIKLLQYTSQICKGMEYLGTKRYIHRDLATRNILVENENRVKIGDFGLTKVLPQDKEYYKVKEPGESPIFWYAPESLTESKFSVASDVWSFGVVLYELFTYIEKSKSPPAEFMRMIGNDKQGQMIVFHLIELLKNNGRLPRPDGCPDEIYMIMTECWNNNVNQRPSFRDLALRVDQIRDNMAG
Design: species or system Sf9
pKd: −log10 of the molar value.
observedProperty: pKd

A selection of reference data follows.
[[record]]
compound = "CN(C(=O)n1nc(Nc2ccc(S(N)(=O)=O)cc2)nc1N)c1ccccc1"
reportedresult = 4.32

[[record]]
compound = "COC(=O)COc1ccc(NC(=O)n2nc(Nc3ccc(S(N)(=O)=O)cc3)nc2N)cc1"
reportedresult = 5.72

[[record]]
compound = "N#Cc1ccc(Nc2nc(N)n(C(=O)Nc3cccc(OCC(=O)O)c3)n2)cc1"
reportedresult = 5.40

[[record]]
compound = "Nc1nc(Nc2ccc(S(N)(=O)=O)cc2)nn1C(=O)Nc1ccccn1"
reportedresult = 4.52


(P) Nc1nc(Nc2ccc(S(N)(=O)=O)cc2)nn1C(=O)Nc1ccc(-c2nnc(C(=O)O)o2)cc1
(Q) Nc1nc(Nc2ccc(S(N)(=O)=O)cc2)nn1C(=O)Nc1ccc(-c2ccc(C(=O)O)o2)cc1
(R) Nc1nc(Nc2ccc(S(N)(=O)=O)cc2)nn1Cc1c(F)cccc1F
INPUT: Number of compounds to sort: 3. Sort criterion: pKd, ascending. Your reply should list the labels following the order given in the request.
OUTPUT: R, P, Q
(R: 4.78, P: 5.15, Q: 6.36)
